# reverse-splicing fitness per record follows
B1: Azoarcus group I ribozyme (parent)
chain: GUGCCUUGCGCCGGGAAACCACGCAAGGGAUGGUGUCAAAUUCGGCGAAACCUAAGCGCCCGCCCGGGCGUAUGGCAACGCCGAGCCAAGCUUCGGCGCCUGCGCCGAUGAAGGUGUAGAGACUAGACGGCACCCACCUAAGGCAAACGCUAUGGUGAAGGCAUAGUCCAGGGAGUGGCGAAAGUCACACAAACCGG

variants of: B1; assay: reverse-splicing fitness (ratio to wild type); higher = more active; in vitro selection; Mg2+ level not given

mutantName	reverse-splicing fitness
A120G A145U C150U C169G U176A	0.157
C82A A111G A120C A145G C169U	0.013
C82G A111C A120C C150G C169G	0.00702
C82U A111G A120U A145U C169U U176C	0.00254
C82G A111U A145U U176C	0.246
A111G A120C A145U C150A C169U U176A	0.0204
C82U A111U A120C C169U U176G	0.00459
C82G A111G U176G	0.0956
C82A A111G A120G A145C C150U C169A	0.00986
C82G A111G C150A C169U U176C	0.0146
C82G A145G C169A U176G	0.00413
C82G A111U A120U A145U C150G C169A U176A	0.00343
C82A A111C A120C A145C C150U U176C	0.0125
C82U A111G A120U A145G C150U C169U U176A	0.00391
C82A A111G A120G C150U C169A U176A	0.0153
C82A A111C A120G A145U U176C	0.0197
C82A A120G A145U C150G C169A	0.00891
C82A A120G C150U C169G U176C	0.0193
C82G A120G A145C C169U	0.0209
C82U A111G A145G C150A C169G U176C	0.0236
A111G A120C A145U C150U C169A U176C	0.00821
C82G A111U A120U C150A C169U U176G	0.00236
C82A A111U A120C A145C C150G C169A U176C	0.011
A111C A120U A145C C150U C169A	0.00231
C82G A111U C150U U176C	0.131
C82G A111C A145G C150G U176C	0.0214
C82U A111U U176C	0.173
A120G U176A	0.213
C82A A145C C150G C169G U176A	0.00895
C82A A145G	0.631
C82U A111U A120G U176C	0.0165
C82A A120U A145U C150A C169A U176G	0.00186
C82U A120U A145U C150U C169G	0.00432
C82G A111C A120C A145U C150G C169G U176C	0.00759
C82G A111C A120C C150A C169G U176G	0.00766
C82U A111G A145G C150A U176C	0.0481
C82G A111C A120C A145G U176C	0.0314
C82U A111U A145C C150G C169G U176A	0.00901
C82A A111U A120C A145C C150G C169U U176G	0.00543
C82U A111U A120U A145C C150A	0.00466
A111U A120G A145G C150U C169A U176G	0.00525
A120U C150U C169G	0.15
C82A A111U A120C A145G U176A	0.0187
A120G A145G C169U U176A	0.172
C82G A111U A120C	0.0483
C82G A111C C169A U176C	0.023
